- Tested on: BT-549 breast
- procedure.text: NCI-60 one-dose screen, 48 h (100 = growth as untreated, 0 = no growth, -100 = all killed)
- study.conditions: 10 µM unless noted
This is part of a sample that, as a whole, favours compounds with a hit. Of some 83,000 tested, about 20% had one in any assay.
Attribute: growth
Express your answer in %, writing the number without its unit.

Clc1ccc(Nc2scc3[n+]2CCC3)cc1
99.2
COc1cccc2c(=O)c3c(sc12)c(NCCCNCCO)nc1ccccc13
84.8
COC(=O)C1(C)CCC[C@]2(C)[C@H]3C[C@H]4C(C(C)C)=C[C@]3(CC[C@@H]12)[C@H]1[C@@H]4[C@@H](OCC#CCN2CCOCC2)CC[C@@H]1OCC#CCN1CCOCC1 (stereo partly specified)
97.7

Q: Fill in: growth of CC(=O)c1ccc(Cc2ccc(C(C)=O)s2)s1 is ___
Ans: 110

Q: Fill in: growth of CCOC(=O)C1=C(C)c2ccc(OC)c(OC)c2C1 is ___
Ans: 108

Q: Fill in: growth of O=C(/C=C/c1ccccc1)c1ccc(Nc2nc(NCCO)nc(Nc3ccc(Cl)cc3)n2)cc1 is ___
Ans: 84.4

Q: Fill in: growth of CCN1C(=O)N(c2ccccc2)C2Nn3c(s/c(=C4\C(=O)N(C(C)C)c5ccccc54)c3=O)=NC21 (stereo unspecified) is ___
Ans: 107

Q: Fill in: growth of NC(CCc1nc2ccccc2c(=O)[nH]1)C(=O)O (stereo unspecified) is ___
Ans: 97

Q: Fill in: growth of COc1c(B(O)O)cccc1-c1nc2ccc3n[nH]c(F)c3c2c2c1CCCC2 is ___
Ans: 5.08

Q: Fill in: growth of Cc1ccc2sc3c(NCCCNCCO)nc4ccccc4c3c(=O)c2c1 is ___
Ans: 90.2

Q: Fill in: growth of Cc1c(-c2csc(-n3nc(C(F)(F)F)cc3C(F)(F)F)n2)no[n+]1[O-] is ___
Ans: 102

----------
- System: COLO 205 colon
- procedure.text: NCI-60 one-dose screen, 48 h
- study.conditions: 10 µM unless noted
Compounds without any hit were thinned out: in the full panel of roughly 83,000, 20% have a hit. Active and inactive are the calls of the source. The calls were made as follows: active = growth percent below 10; inactive = the rest.
Tick one outcome: active, inactive

Example cases with answers are listed next.
CC(C)C[C@H](C(=O)N[C@H](C(N)=O)C(C)C)N1CC=CCN(OCc2ccccc2)S1(=O)=O
inactive
CCOc1ccc(-c2nonc2NC(=O)c2cccc(C)c2)cc1OCC
inactive

Q: Please share the test call associated with COc1ccc(Cn2c(Br)c3c(c2Br)-c2nc(N)sc2CC3)cc1 .
Ans: inactive

Q: Please share the test call associated with Nc1ccc(-n2c(=O)oc3ccc(Cl)cc3c2=O)c(Cl)c1 .
Ans: active

Q: Please share the test call associated with COc1ccc(Cn2c(Br)c3c(c2-c2cc(OC)c(OC)c(OC)c2)CCc2sc(NC(C)=O)nc2-3)cc1 .
Ans: inactive

Q: Please share the test call associated with O=C(Nc1ccc(Br)cc1F)c1cc(F)ccc1O .
Ans: inactive

Q: Please share the test call associated with N[C@@H](CC/[N+]([O-])=N/O)C(=O)O .
Ans: inactive

Q: Please share the test call associated with COc1nc2c(c(=O)n1C)N=C1c3ccccc3C(=O)C1C(c1ccccc1)N2 (stereo unspecified) .
Ans: inactive

Q: Please share the test call associated with O=C(c1ccccc1)N(C(=S)NCCc1ccc(Cl)cc1)c1ccc(Cl)cc1 .
Ans: inactive

Q: Please share the test call associated with N#CC(C#N)=Cc1c(-c2ccccc2)[nH]c2ccccc12 .
Ans: inactive

Q: Please share the test call associated with NCCNc1nc2ccc(F)cc2c2c(=O)c3cc(F)ccc3sc12 .
Ans: active
